For each of the compounds below, state its melting point.

Worked cases, answers included:
INSERT INTO results (compound, measuredresult) VALUES
  ('COc1ccc2sc(SCc3c(F)c(F)c(F)c(F)c3F)nc2c1', '71 to 75 °C'),
  ('CC1(C)OC(=C(C#N)C#N)C(C#N)=C1C=Cc1c(F)c(F)c(N2C3C4CCC(C4)C32)c(F)c1F (stereo not given)', '233 °C'),
  ('CCOC(=O)c1ccc(N(NC(C)=O)C(=O)OC(C)(C)C)cc1', '105 to 108 °C'),
  ('Cc1n[nH]c(=O)n(Cc2ccccc2)c1=O', '143 to 146 °C'),
  ('CCOC(=O)Cn1c(=S)n(Cc2ccc(Cl)c(Cl)c2)c(=S)c2ccccc21', '155 to 156 °C'),
  ('O=C(NC1CCN(Cc2ccccc2)CC1)c1n[nH]c2ccccc12', '198 to 200 °C');

// each compound listed below needs its melting point
1. N#Cc1ccccc1OC1SCC(O)C(O)C1O (stereo not given)
2. CCN(c1ccc(Cl)cc1[N+](=O)[O-])S(=O)(=O)c1ccc(Cl)cc1

Result:
130 to 132 °C
122 to 123 °C

// each compound listed below needs its melting point
1. CCCNc1ncnc2c1ncn2Cc1ccc(OC)c(OC)c1
2. CSc1nc2ccc(C)cc2c(=O)s1

Result:
1: 117 to 120 °C; 2: 114 °C

---

For each of the compounds below, state its melting point.

INSERT INTO assay_data (compound, recordedendpoint, measuredresult) VALUES
  ('Cc1c(NC(=O)CC(C)(C)C)c(C)c2c(c1-c1c[nH]cn1)OCC2c1ccc(C(C)C)cc1 (centres undefined)', 'melting point', '277 to 279 °C'),
  ('CNC(=O)c1cc(NC(=O)c2ccc(C)c(Nc3nccc(-c4cccnc4)n3)c2)cc(N2CCOCC2)c1', 'melting point', '153 to 156 °C'),
  ('Fc1ccc2c(C3CCN(CC4COc5ccccc5O4)CC3)noc2c1 (centres undefined)', 'melting point', '86 to 87 °C'),
  ('Cc1[nH]cnc1CCNC(=NCCSCc1nc[nH]c1C)NC#N', 'melting point', '190 to 191 °C'),
  ('COc1ccc(CC(C#N)c2cc(OC)c(OC)c(OC)c2)cc1 (centres undefined)', 'melting point', '82 to 83 °C'),
  ('CC(C)c1cccc(COCCO)c1NC(=O)CC1c2ccccc2Oc2ccccc21', 'melting point', '153 to 154 °C'),
  ('CCCCC1(O)CCN(CC23CC(c4ccccc42)c2ccccc23)CC1', 'melting point', '194 to 196 °C'),
  ('Cc1nc2c3c(c(C(=O)NC4CC4)cc2n1C)CCC1(Cc2ccccc2C1)N3', 'melting point', '247 to 248 °C');

From here, focus on the item given below.
Problem: Any idea what its melting point is? The compound is COCOc1ccccc1-c1cc(-c2cccc([N+](=O)[O-])c2)c(C#N)c(N)n1
Result: 169 to 171 °C

---

For each of the compounds below, state its melting point.

INSERT INTO measurements (compound, measuredresult) VALUES
  ('CCOC(=O)Cc1ccc(-c2nc(COc3ccc(COc4nn(-c5ccccc5)cc4/C=C/c4nc(N5CCCCC5)sc4C)cc3OC)c(C)o2)cc1', '131 to 132 °C');

// each compound listed below needs its melting point
1. COCc1ncc(Nc2ccc(Cl)cc2)nc1-n1nc(C)cc1C
2. O=[N+]([O-])c1cc([N+](=O)[O-])c(Nc2nc(Cl)ccc2C(F)(F)F)c(C(F)(F)F)c1
3. Fc1cc(CNC(=S)NCC(F)(F)F)ccc1OCC(F)(F)F
4. N#CCCN(N)c1nc2ccccc2s1

Result:
147 to 151 °C
129 to 131 °C
88 to 90 °C
111 to 113 °C

---

recordedEndpoint: melting point

// each compound listed below needs its melting point
1. Cc1sc2cc(C3=NCC4(CCNCC4)S3)[nH]c2c1N(C)S(=O)(=O)c1cccs1
2. COc1ccc2[nH]cc(CC(=O)N3CCN(c4ccc(N)cc4)CC3)c2c1

Result:
196 °C
119 to 120 °C

---

recordedEndpoint: melting point

INSERT INTO measurements (compound, recordedendpoint, measuredresult) VALUES
  ('COc1ccc(C(=O)CC(=O)C(C)(C)C)cc1OC', 'melting point', '52.3 to 53.3 °C'),
  ('CC(C)c1ccccc1N1CCS/C1=N/N=C\c1ccc(-c2ncn(-c3ccc(OC(F)(F)F)cc3)n2)cc1', 'melting point', '193 to 196 °C'),
  ('COc1ccccc1-c1c(C2CCN(C)CC2)[nH]c(=O)c2ccccc12', 'melting point', '153 to 155 °C'),
  ('COC(C)Cc1ccc(OCCNc2ncnc3ccccc23)c(C)c1 (stereo not given)', 'melting point', '95 to 97 °C'),
  ('Cc1cc(OCC(=O)Nc2cccc(C(=O)O)c2)ccc1C(C)C', 'melting point', '188 to 189 °C');

// each compound listed below needs its melting point
1. COc1ccc2nc(-c3cc(C(F)(F)F)nn3-c3ccc(S(C)(=O)=O)cc3)sc2c1
2. CC(=O)SCC(=O)Nc1ccc(C(=O)O)cc1
3. COc1cc2c(cc1C=O)C(C)(C)CO2
4. COc1cc(Cc2ccc(N)c(C#N)c2)cc(OC)c1
5. Cc1cc(C)c2c(C)coc2c1Cc1ccc(C(C)C)cc1

Result:
1. 217 to 218 °C
2. 233 to 234 °C
3. 75 to 76 °C
4. 105 to 107 °C
5. 106 to 107 °C

---

For each of the molecules below, state its melting point.

Worked cases, answers included:
INSERT INTO assay_data (smilescode, measuredresult) VALUES
  ('Cc1ccc(N)c2nccc(Cl)c12', '104 to 107 °C'),
  ('Clc1cc(CC(Cl)Cl)cnc1Cl', '89 to 90 °C'),
  ('O=C(CCCOc1ccc2nc3[nH]c(=O)[nH]c3cc2c1)NC1CCCC1', '> 320 °C'),
  ('COC(=O)c1cc2cc(C[C@@H](C)NC[C@H](O)c3cccc(Cl)c3)ccc2n1CC1CC1', '135 to 137 °C'),
  ('CC(C)NC(=O)c1ccc(N2CCC(N3C(=O)OCc4ccccc43)CC2)nn1', '120 °C');

From here, focus on the item given below.
Problem: Any idea what its melting point is? The molecule is N=C(N)Nc1nc(-c2csc(N)n2)cs1
Result: 274 °C

---

For each of the molecules below, state its melting point.

Worked cases, answers included:
INSERT INTO assay_data (molecule, recordedendpoint, measuredresult) VALUES
  ('COc1cccc(C2OC(=O)CC2C(=O)O)c1OC (stereo not given)', 'melting point', '129 to 130 °C'),
  ('CCC(CC)C(=O)Nc1ccc2ncnc(NC=C(C(=O)OC)C(=O)OC)c2c1', 'melting point', '221 to 225 °C'),
  ('Cc1ccc(-c2ccccc2C(=O)NC(C)C#N)cc1 (stereo not given)', 'melting point', '102 to 104 °C');

// each molecule listed below needs its melting point
1. CC(CNc1ccc(Cl)cc1[N+](=O)[O-])SC#N (stereo not given)
2. Cn1c(C(F)(F)F)cc(=O)n(-c2cc(Oc3ncccn3)c(Cl)cc2F)c1=O
3. COC(=O)C(C)(C)NC(=O)c1cc2c(n(CC3CCCCC3)c1=O)CCCCCC2
4. COC(=O)NC1=NC(c2ccc(F)cc2)CCN1 (stereo not given)
5. O=C(O)CCCOc1ccc([C@H]2c3ccc(O)cc3OC[C@H]2c2ccccc2)cc1 (racemic)
6. CCCCCCC(C)(C)c1cc(O)c2c(c1)OCCC1=C2CC(C)CC1 (stereo not given)
7. CCOC(=O)[C@H](CCC1CCCCC1)N[C@H]1COc2ccccc2N(CC(=O)O)C1=O

Result:
1: 69 to 70 °C; 2: 192 to 194 °C; 3: 260 to 263 °C; 4: 211 to 212 °C; 5: 91.5 to 94 °C; 6: 134 to 136 °C; 7: 135 to 139 °C

---

recordedEndpoint: melting point

Worked cases, answers included:
INSERT INTO results (compound, recordedendpoint, measuredresult) VALUES
  ('OC(c1cccnc1)c1ccc(Cl)cc1Cl (stereo not given)', 'melting point', '108 to 111 °C'),
  ('CCCCCc1ccc(-c2ccc(CCc3ccc(F)cc3)cc2)cc1', 'melting point', '60 °C'),
  ('CC(C)(C)OC(=O)NCCOCCOCCNC(=O)CCCCC1SCC2NC(=O)NC21 (stereo not given)', 'melting point', '106 to 108 °C');

// each compound listed below needs its melting point
1. CC1(C)N=C(n2nc(O)ccc2=O)c2cc(Br)ccc2O1
2. O=c1cc(Nc2ccccc2)[nH]n1-c1ccc(S(=O)(=O)O)cc1
3. c1ccc(C2CN=C3NCCN32)cc1 (stereo not given)
4. CC(=O)ON=C(N)c1cccc(C(=O)NCCCNC(=O)[C@@H]2CCCN2S(=O)(=O)c2ccc(Cl)c(COc3cccc4c(C)cc(C)nc34)c2Cl)c1

Result:
196 to 198 °C
290 to 291 °C
167 to 170 °C
100 to 104 °C

// each compound listed below needs its melting point
1. Cc1csc(-c2cc3cccc(NS(=O)(=O)c4cccs4)c3[nH]2)n1
2. COc1cc(C(C)C)c2c(c1)S(=O)(=O)N(COC(=O)C(C)(C)C)C2=O
3. CS(=O)(=O)c1ccc(-c2ccc(Br)n2-c2ccc(F)cc2)cc1
4. CCOC(=O)C1[C@@H]2[C@@H](O)[C@@H]3O[C@H](c4ccc(C(C)(C)C)cc4)OC[C@H]3O[C@H]12 (stereo not given in full)
5. COc1cc2[nH]c3cc(OC)c(OC)cc3c2cc1OC
6. N#Cc1ccccc1S(=O)(=O)c1ccc(N)cc1
7. CC(=O)Nc1cccc(CCCCC(=O)O)c1
8. CC1=C(c2ccc(C(=O)N3Cc4ccc(C(=O)O)n4Cc4ccccc43)cc2)CCCC1

Result:
["181 to 183 °C", "178 to 179 °C", "174 to 176 °C", "113 to 116 °C", "232 to 233 °C", "177 to 179 °C", "137 to 138 °C", "171 °C"]
